# ASSAY REMARKS: Pharmacokinetics after intravenous administration to rats
# Type: in vivo, male Sprague-Dawley rats
# COND: male, Sprague-Dawley, rat, plasma, iv, 10 mg/kg

- CHEM SMILES: "O=C(CC(=O)c1ccccc1)c1ccccc1"
  Vd [L/kg]: 6.75

---

# ASSAY REMARKS: Pharmacokinetics after intravenous administration to rats
# Assay type: in vivo, male Sprague-Dawley rats
# COND: male, Sprague-Dawley, rat, plasma, iv, 20 mg/kg

- COMPOUND: "O=C(CC(=O)c1ccccc1)c1ccccc1 [DBM, 1,3-Diphenyl-1,3-propanedione]"
  half-life: "12 h"

---

# ASSAY REMARKS: Pharmacokinetics after intravenous administration to rats
# Format: in vivo, male Sprague-Dawley rats
# COND: male, Sprague-Dawley, rat, plasma, iv, 10 mg/kg

- CHEM SMILES: "O=C(CC(=O)c1ccccc1)c1ccccc1"
  clearance: "11.8 mL/min/kg"

---

# ASSAY REMARKS: Pharmacokinetics after intravenous administration to rats
# Format: in vivo, male Sprague-Dawley rats
# COND: male, Sprague-Dawley, rat, plasma, iv, 10 mg/kg

- CHEM SMILES: "O=C(CC(=O)c1ccccc1)c1ccccc1"
  half-life [min]: 864

---

# Assay type: in vivo, Nrf2 wild type C57BL/6J (+/+) mice
# COND: male, C57BL/6J, mouse, plasma, ip, 100 mg/kg

- CHEM SMILES: "O=C(CC(=O)c1ccccc1)c1ccccc1"
  AUC (ng·h/mL): 9620

---

# Format: in vivo, Nrf2 knockout C57BL/6J (−/−) mice
# COND: male, C57BL/6J, mouse, plasma, po, 500 mg/kg
OBSERVED PROPERTY: AUC (ng·h/mL)

- CHEM SMILES: "O=C(CC(=O)c1ccccc1)c1ccccc1"
  ASSAY RESULT: 85600

---

# ASSAY REMARKS: Pharmacokinetics after oral administration to rats
# Assay type: in vivo, male Sprague-Dawley rats
# COND: male, Sprague-Dawley, rat, plasma, po, 10 mg/kg

- COMPOUND: "O=C(CC(=O)c1ccccc1)c1ccccc1 [DBM, 1,3-Diphenyl-1,3-propanedione]"
  UNIT SYMBOL: "h"
  MRT: 7.6

---

# Assay type: in vivo, Nrf2 wild type C57BL/6J (+/+) mice
# COND: male, C57BL/6J, mouse, plasma, po, 500 mg/kg

- CHEM SMILES: "O=C(CC(=O)c1ccccc1)c1ccccc1"
  MRT: "4.73 h"

---

# Assay type: in vivo, Nrf2 knockout C57BL/6J (−/−) mice
# COND: male, C57BL/6J, mouse, plasma, ip, 100 mg/kg

- CHEM SMILES: "O=C(CC(=O)c1ccccc1)c1ccccc1"
  Tmax, min: 15

---

# Type: in vivo, Nrf2 wild type C57BL/6J (+/+) mice
# COND: male, C57BL/6J, mouse, plasma, po, 500 mg/kg

- CHEM SMILES: "O=C(CC(=O)c1ccccc1)c1ccccc1"
  Tmax: "15 min"

---

# Type: in vivo, Nrf2 knockout C57BL/6J (−/−) mice
# COND: male, C57BL/6J, mouse, plasma, ip, 100 mg/kg
OBSERVED PROPERTY: AUC (ng·h/mL)

- MOLECULE: "O=C(CC(=O)c1ccccc1)c1ccccc1 [DBM, 1,3-Diphenyl-1,3-propanedione]"
  UNIT SYMBOL: "ng·h/mL"
  ASSAY RESULT: 22100

---

# ASSAY REMARKS: Pharmacokinetics after oral administration to rats
# Assay type: in vivo, male Sprague-Dawley rats
# COND: male, Sprague-Dawley, rat, plasma, po, 250 mg/kg

- CHEM SMILES: "O=C(CC(=O)c1ccccc1)c1ccccc1"
  Cmax, ng/mL: 3020

---

# ASSAY REMARKS: Pharmacokinetics after intravenous administration to rats
# Format: in vivo, male Sprague-Dawley rats
# COND: male, Sprague-Dawley, rat, whole blood, intravenous, 10 mg/kg

- CHEM SMILES: "O=C(CC(=O)c1ccccc1)c1ccccc1"
  clearance: "~0.762 L/h/kg"

---

# ASSAY REMARKS: Pharmacokinetics after intravenous administration to rats
# Type: in vivo, male Sprague-Dawley rats
# COND: male, Sprague-Dawley, rat, plasma, iv, 20 mg/kg
OBSERVED PROPERTY: MRT (h)

- CHEM SMILES: "O=C(CC(=O)c1ccccc1)c1ccccc1"
  OBSERVED PROPERTY: "MRT"
  ASSAY RESULT: 10.2

---

# Format: in vivo, Nrf2 wild type C57BL/6J (+/+) mice
# COND: male, C57BL/6J, mouse, plasma, po, 500 mg/kg

- COMPOUND: "O=C(CC(=O)c1ccccc1)c1ccccc1 [DBM, 1,3-Diphenyl-1,3-propanedione]"
  AUC: "64600 ng·h/mL"

---

# ASSAY REMARKS: Pharmacokinetics after oral administration to rats
# Assay type: in vivo, male Sprague-Dawley rats
# COND: male, Sprague-Dawley, rat, plasma, po, 10 mg/kg

- COMPOUND: "O=C(CC(=O)c1ccccc1)c1ccccc1 [DBM, 1,3-Diphenyl-1,3-propanedione]"
  half-life: "11 h"

---

# Type: in vivo, Nrf2 knockout C57BL/6J (−/−) mice
# COND: male, C57BL/6J, mouse, plasma, po, 500 mg/kg
OBSERVED PROPERTY: Tmax

- CHEM SMILES: "O=C(CC(=O)c1ccccc1)c1ccccc1"
  ASSAY RESULT: "15 min"

---

# Type: in vivo, Nrf2 wild type C57BL/6J (+/+) mice
# COND: male, C57BL/6J, mouse, plasma, ip, 100 mg/kg

- CHEM SMILES: "O=C(CC(=O)c1ccccc1)c1ccccc1"
  Cmax / ng/mL: 4560

---

# Format: in vivo, Nrf2 knockout C57BL/6J (−/−) mice
# COND: male, C57BL/6J, mouse, plasma, ip, 100 mg/kg

- CHEM SMILES: "O=C(CC(=O)c1ccccc1)c1ccccc1"
  half-life / h: 5.04

---

# ASSAY REMARKS: Pharmacokinetics after oral administration to rats
# Format: in vivo, male Sprague-Dawley rats
# COND: male, Sprague-Dawley, rat, plasma, po, 250 mg/kg

- CHEM SMILES: "O=C(CC(=O)c1ccccc1)c1ccccc1"
  AUC(0-inf): "30400 ng·h/mL"

---

# Type: in vivo, Nrf2 knockout C57BL/6J (−/−) mice
# COND: male, C57BL/6J, mouse, plasma, po, 500 mg/kg

- MOLECULE: "O=C(CC(=O)c1ccccc1)c1ccccc1 [DBM, 1,3-Diphenyl-1,3-propanedione]"
  half-life (h): 8.52

---

# Type: in vivo, Nrf2 knockout C57BL/6J (−/−) mice
# COND: male, C57BL/6J, mouse, plasma, po, 500 mg/kg

- COMPOUND: "O=C(CC(=O)c1ccccc1)c1ccccc1 [DBM, 1,3-Diphenyl-1,3-propanedione]"
  UNIT SYMBOL: "h"
  MRT: 6.36

---

# ASSAY REMARKS: Pharmacokinetics after oral administration to rats
# Type: in vivo, male Sprague-Dawley rats
# COND: male, Sprague-Dawley, rat, plasma, po, 50 mg/kg

- CHEM SMILES: "O=C(CC(=O)c1ccccc1)c1ccccc1"
  half-life (h): 9.3

---

# Type: in vivo, Nrf2 wild type C57BL/6J (+/+) mice
# COND: male, C57BL/6J, mouse, plasma, po, 500 mg/kg
OBSERVED PROPERTY: Cmax (ng/mL)

- CHEM SMILES: "O=C(CC(=O)c1ccccc1)c1ccccc1"
  ASSAY RESULT: 23200

---

# Assay type: in vivo, Nrf2 knockout C57BL/6J (−/−) mice
# COND: male, C57BL/6J, mouse, plasma, ip, 100 mg/kg
OBSERVED PROPERTY: MRT (h)

- CHEM SMILES: "O=C(CC(=O)c1ccccc1)c1ccccc1"
  UNIT SYMBOL: "h"
  ASSAY RESULT: 5.15

---

# Assay type: in vivo, Nrf2 knockout C57BL/6J (−/−) mice
# COND: male, C57BL/6J, mouse, plasma, po, 500 mg/kg
OBSERVED PROPERTY: Cmax (ng/mL)

- CHEM SMILES: "O=C(CC(=O)c1ccccc1)c1ccccc1"
  OBSERVED PROPERTY: "Cmax"
  ASSAY RESULT: 17400

---

# ASSAY REMARKS: Pharmacokinetics after intravenous administration to rats
# Format: in vivo, male Sprague-Dawley rats
# COND: male, Sprague-Dawley, rat, plasma, iv, 20 mg/kg
OBSERVED PROPERTY: clearance (mL/min/kg)

- CHEM SMILES: "O=C(CC(=O)c1ccccc1)c1ccccc1"
  ASSAY RESULT: 12

---

# ASSAY REMARKS: Pharmacokinetics after oral administration to rats
# Assay type: in vivo, male Sprague-Dawley rats
# COND: male, Sprague-Dawley, rat, plasma, po, 50 mg/kg

- MOLECULE: "O=C(CC(=O)c1ccccc1)c1ccccc1 [DBM, 1,3-Diphenyl-1,3-propanedione]"
  UNIT SYMBOL: "ng·h/mL"
  AUC(0-inf): 9460
